target_entity: Odc2p (Saccharomyces cerevisiae, UniProt Q99297)
Construct: made in house; host or cells: S. cerevisiae odc1Δodc2Δ (YPH499 background) carrying pYES2-based pODC2; purified from mitochondria on Ni-NTA agarose
assay_method_text: Effect of inhibitors and external compounds on the [14C]oxoglutarate/oxoglutarate exchange by proteoliposomes reconstituted with Odc2p
Type: biochemical
experimental_setup: Odc2p; Table III
observed_property: inhibition of [14C]oxoglutarate/oxoglutarate exchange (in words)

molecule	target_entity	observed_value
COC(CNC(=O)c1ccccc1OCC(=O)O)[CH2][Hg][OH] (stereo not drawn)	Odc2p (Saccharomyces cerevisiae, UniProt Q99297)	inhibited strongly
O=S(=O)(O)c1cc[c]([Hg][Cl])cc1 [p-Chloromercuriphenylsulfonate]	Odc2p (Saccharomyces cerevisiae, UniProt Q99297)	inhibited strongly
CCCCC(C(=O)O)C(=O)O [Butylmalonate]	Odc2p (Saccharomyces cerevisiae, UniProt Q99297)	rather poorly
O=C(O)CC(C(=O)O)c1ccccc1 (stereo not drawn) [Phenylsuccinate]	Odc2p (Saccharomyces cerevisiae, UniProt Q99297)	rather poorly

----------
Measured Ki by item
target_entity: Odc1p (Saccharomyces cerevisiae)
Construct: made in house; host or cells: S. cerevisiae odc1Δodc2Δ (YPH499 background) carrying pYES2-based pODC1; purified from mitochondria on Ni-NTA agarose
assay_method_text: Kinetic constants (Km, Vmax, Ki) of recombinant purified Odc1p in proteoliposomes
Assay type: biochemical
experimental_setup: Odc1p; Lineweaver-Burk plots; 0.1-2.0 mM [14C]oxoglutarate; 20 mM internal oxoglutarate; means ±S.D.; read-out: Ki (competition with [14C]oxoglutarate uptake)

compound	Ki
O=C(O)CCCC(=O)C(=O)O [2-Oxoadipate]	0.26 mM
O=C(O)CCC(=O)O [Succinate]	> 15 mM
O=C(O)CCCCC(=O)C(=O)O [2-Oxopimelate]	1.83 mM
O=C(O)CC(=O)C(=O)O [Oxaloacetate]	> 15 mM
O=C(O)C[C@H](O)C(=O)O [L-malate]	1.32 mM

----------
Measured Ki by item
target_entity: Odc2p (Saccharomyces cerevisiae, UniProt Q99297)
Construct: made in house; host or cells: S. cerevisiae odc1Δodc2Δ (YPH499 background) carrying pYES2-based pODC2; purified from mitochondria on Ni-NTA agarose
assay_method_text: Kinetic constants (Km, Vmax, Ki) of recombinant purified Odc2p in proteoliposomes
Format: biochemical
experimental_setup: Odc2p; Lineweaver-Burk plots; 0.1-2.0 mM [14C]oxoglutarate; 20 mM internal oxoglutarate; means ±S.D.; read-out: Ki (competition with [14C]oxoglutarate uptake)

compound	units	relation_operator	Ki
O=C(O)CC(=O)C(=O)O [Oxaloacetate]	µM	>	15000
O=C(O)CCCC(=O)C(=O)O [2-Oxoadipate]	µM	=	310
O=C(O)CCCCC(=O)C(=O)O [2-Oxopimelate]	µM	=	1640
O=C(O)C[C@H](O)C(=O)O [L-malate]	µM	=	1370

----------
target_entity: Odc1p (Saccharomyces cerevisiae, UniProt Q03028)
Construct: made in house; host or cells: S. cerevisiae odc1Δodc2Δ (YPH499 background) carrying pYES2-based pODC1; purified from mitochondria on Ni-NTA agarose
assay_method_text: Dependence on internal substrate of [14C]oxoglutarate uptake into proteoliposomes reconstituted with recombinant Odc1p
Assay type: biochemical
experimental_setup: Odc1p; proteoliposomes preloaded with various substrates
observed_property: [14C]oxoglutarate uptake with the internal substrate (in words)

compound	observed_value
CC[C@H](O)C(=O)O [2-hydroxybutyrate]	no exchange
NC(=O)CC[C@H](N)C(=O)O [glutamine]	no exchange
C[N+](C)(C)CC(O)CC(=O)[O-] (stereo not drawn) [carnitine]	no exchange
CCCC(=O)C(=O)O [2-oxovalerate]	no exchange
O=C(O)CCCCC(=O)C(=O)O [2-Oxopimelate]	taken up efficiently
O=C(O)CCCC(=O)C(=O)O [2-Oxoadipate]	taken up efficiently
O=C(O)C[C@H](O)C(=O)O [L-malate]	taken up efficiently
O=C(O)C[C@@H](O)C(=O)O [D-malate]	taken up efficiently
N[C@@H](CCC(=O)O)C(=O)O [glutamate]	no exchange
CC(C)CC(=O)C(=O)O [2-oxoisocaproate]	no exchange

----------
Measured [14C]oxoglutarate transport by item
target_entity: Odc2p (Saccharomyces cerevisiae)
Construct: made in house; host or cells: S. cerevisiae odc1Δodc2Δ (YPH499 background) carrying pYES2-based pODC2; purified from mitochondria on Ni-NTA agarose
Sequence (Q99297 1-307): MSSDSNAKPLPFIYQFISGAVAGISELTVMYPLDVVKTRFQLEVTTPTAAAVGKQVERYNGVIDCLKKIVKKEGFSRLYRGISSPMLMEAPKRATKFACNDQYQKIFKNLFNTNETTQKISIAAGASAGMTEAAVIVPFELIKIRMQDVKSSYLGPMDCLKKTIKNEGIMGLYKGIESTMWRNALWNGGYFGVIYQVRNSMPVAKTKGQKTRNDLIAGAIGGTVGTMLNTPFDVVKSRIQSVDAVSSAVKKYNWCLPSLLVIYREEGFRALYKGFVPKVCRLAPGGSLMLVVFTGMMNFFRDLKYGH
assay_method_text: Dependence on internal substrate of [14C]oxoglutarate uptake into proteoliposomes reconstituted with recombinant Odc2p
Format: biochemical
experimental_setup: Odc2p; proteoliposomes preloaded with 20 mM internal substrate; 0.6 mM [14C]oxoglutarate; 45 seconds
observed_property: [14C]oxoglutarate transport (mmol/min per g protein)

compound	observed_property	observed_value
O=C(O)C[C@@H](O)C(=O)O [D-malate]	[14C]oxoglutarate transport	10.5
O=C(O)CCC(=O)O [Succinate]	[14C]oxoglutarate transport	4.3
O=C(O)CC(O)(CC(=O)O)C(=O)O [Citrate]	[14C]oxoglutarate transport	8.0
O=C(O)CCCC(=O)C(=O)O [2-Oxoadipate]	[14C]oxoglutarate transport	22.1
O=C(O)CCCCC(=O)C(=O)O [2-Oxopimelate]	[14C]oxoglutarate transport	14.8

----------
target_entity: Odc1p (Saccharomyces cerevisiae)
Construct: made in house; host or cells: S. cerevisiae odc1Δodc2Δ (YPH499 background) carrying pYES2-based pODC1; purified from mitochondria on Ni-NTA agarose
Sequence (Q03028 1-310): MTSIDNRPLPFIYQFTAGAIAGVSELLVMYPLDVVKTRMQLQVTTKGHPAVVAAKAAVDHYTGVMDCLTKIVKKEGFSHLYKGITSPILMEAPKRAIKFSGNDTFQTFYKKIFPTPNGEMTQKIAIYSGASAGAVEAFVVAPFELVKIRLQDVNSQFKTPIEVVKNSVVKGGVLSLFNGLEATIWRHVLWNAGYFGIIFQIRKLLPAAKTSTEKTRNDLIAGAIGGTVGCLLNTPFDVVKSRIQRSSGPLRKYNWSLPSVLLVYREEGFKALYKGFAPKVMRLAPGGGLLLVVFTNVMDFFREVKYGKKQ
assay_method_text: Effect of inhibitors and external compounds on the [14C]oxoglutarate/oxoglutarate exchange by proteoliposomes reconstituted with Odc1p
Assay type: biochemical
experimental_setup: Odc1p; 20 mM internal oxoglutarate, 0.4 mM [14C]oxoglutarate, 45 seconds; inhibitors 4 mM, except mercurials 10 μM, carboxyatractyloside 0.1 mM, N-ethylmaleimide and α-cyanocinnamate 2 mM
observed_property: Inhibition (%) of [14C]oxoglutarate/oxoglutarate exchange

compound	observed_value
O=C(O)CC(C(=O)O)c1ccccc1 (stereo not shown) [Phenylsuccinate]	23
CCN1C(=O)C=CC1=O [N-Ethylmaleimide]	65
CCCCC(C(=O)O)C(=O)O [Butylmalonate]	118
c1ccc(-c2ccnc3c2ccc2c(-c4ccccc4)ccnc23)cc1	97
C=C1[C@@H]2CC[C@H]3[C@]4(C)C[C@H](O[C@@H]5O[C@H](CO)[C@@H](OS(=O)(=O)O)[C@H](OS(=O)(=O)O)[C@H]5OC(=O)CC(C)C)CC(C(=O)O)(C(=O)O)[C@H]4CC[C@]3(C2)[C@H]1O [Carboxyatractyloside]	7
N#C/C(=C\c1ccccc1)C(=O)O [α-Cyanocinnamate]	86
O=S(=O)(O)c1cc[c]([Hg][Cl])cc1 [p-Chloromercuriphenylsulfonate]	98
O=C(O)c1cccc(C(=O)O)c1C(=O)O [1,2,3-Benzenetricarboxylate]	41
Cc1ncc(COP(=O)(O)O)c(C=O)c1O [Pyridoxal 5′-phosphate]	92
[Cl][Hg][Cl] [HgCl2, mercuric chloride]	100

----------
target_entity: Odc2p (Saccharomyces cerevisiae)
Construct: made in house; host or cells: S. cerevisiae odc1Δodc2Δ (YPH499 background) carrying pYES2-based pODC2; purified from mitochondria on Ni-NTA agarose
assay_method_text: Dependence on internal substrate of [14C]oxoglutarate uptake into proteoliposomes reconstituted with recombinant Odc2p
Assay type: biochemical
experimental_setup: Odc2p; proteoliposomes preloaded with various substrates
observed_property: [14C]oxoglutarate uptake with the internal substrate (in words)

compound	observed_value
O=C(O)C[C@@H](O)C(=O)O [D-malate]	taken up efficiently
N[C@@H](CCC(=O)O)C(=O)O [glutamate]	no exchange
O=C(O)CCCCCC(=O)O [Pimelate]	taken up efficiently
O=C(O)CC(O)(CC(=O)O)C(=O)O [Citrate]	much lower activity
CCC(=O)C(=O)O [2-oxobutyrate]	no exchange
O=C(O)C(=O)O [oxalate]	no exchange
NC(CCCCC(=O)O)C(=O)O (stereo not drawn) [2-aminopimelate]	no exchange
O=C(O)CCC(=O)O [Succinate]	much lower activity
NC(CCCC(=O)O)C(=O)O (stereo not drawn) [2-aminoadipate]	no exchange
O=C(O)C[C@H](O)C(=O)O [L-malate]	taken up efficiently
Nc1ncnc2c1ncn2[C@@H]1O[C@H](COP(=O)(O)OP(=O)(O)OP(=O)(O)O)[C@@H](O)[C@H]1O	no exchange

Just for reference, patent US20020155192A1 is where these values come from.
